Where a name gives a salt, the structure may show the parent alone.
measurementType: melting point

Measured melting point, CNC(=O)c1ccc(OC2CCN(c3ccc4c(c3)CCC3(CCN(C5CCC5)CC3)O4)CC2)nc1 [Example 439] : 214 to 216 °C

Measured melting point, Cc1c(-c2ccc(=O)[nH]c2)ccc2c1COC1(CCN(C3CCC3)CC1)O2 [Example 552] : 246 to 249 °C

Measured melting point, Clc1ccc(Nc2ccc3c(c2)COC2(CCN(C4CCC4)CC2)O3)cc1 [Example 259] : 234 to 235 °C

Measured melting point, CNC(=O)NCc1ccc(-c2ccc3c(c2)COC2(CCN(C4CCC4)CC2)O3)cc1 [Example 181] : 205 to 206.5 °C

Measured melting point, O=c1ccc(-c2ccc3c(c2)COC2(CCN(C4CCC4)CC2)O3)c[nH]1 [Example 168] : 145 to 147 °C

Measured melting point, O=C(Nc1ccccc1)N1CCN(c2ccc3c(c2)COC2(CCN(C4CCC4)CC2)O3)CC1 [Example 276] : 194.6 to 195.8 °C

Measured melting point, NC(=O)c1ccc(-c2ccc3c(c2)COC2(CCN(C4CCC4)CC2)O3)s1 [Example 679] : 250 °C (dec.)

Measured melting point, c1cc2c(cc1O[C@H]1CCOC1)CCC1(CCN(C3CCC3)CC1)O2 [Example 450] : 259 to 261 °C

Measured melting point, Cc1nc(C)c(-c2ccc3c(c2)COC2(CCN(C4CCC4)CC2)O3)s1 (as salt: HCl) [Example 70] : 225 to 227 °C

Measured melting point, O=C(NC[C@@H]1CCCO1)c1ccc(-c2ccc3c(c2)COC2(CCN(C4CCC4)CC2)O3)cc1F [Example 589] : 128 to 130 °C

Measured melting point, CC(C)NS(=O)(=O)c1ccc(-c2ccc3c(c2)COC2(CCN(C4CCC4)CC2)O3)cc1 [Example 35] : 85 to 90 °C

Measured melting point, O=c1cc(-c2ccc3c(c2)COC2(CCN(C4CCC4)CC2)O3)ccn1CC(F)(F)F [Example 772] : 196 to 198 °C

Measured melting point, COc1ncc(-c2ccc3c(c2)COC2(CCN(C4CCC4)CC2)O3)cc1CO [Example 768] : 150 to 151 °C

Measured melting point, Cc1cc(=O)[nH]cc1-c1ccc2c(c1)CCC1(CCN(C3CCC3)CC1)O2 [Example 771] : 252 to 254 °C

Measured melting point, [O-][S+]1CC=C(c2ccc3c(c2)COC2(CCN(C4CCC4)CC2)O3)CC1 (centres unmarked) [Example 461] : 155 to 158 °C

Measured melting point, O=C1N(c2ccncc2)CCN1c1ccc2c(c1)COC1(CCN(C3CCC3)CC1)O2 [Example 178] : 185 to 189 °C

Measured melting point, OC1(c2ccc3c(c2)COC2(CCN(C4CCC4)CC2)O3)CCOCC1 [Example 477] : 157 to 159 °C

Measured melting point, O=C(Nc1ccc2c(c1)COC1(CCN(C3CCC3)CC1)O2)c1cnccn1 [Example 304] : 173 to 175 °C

Measured melting point, CN(C)S(=O)(=O)c1ccc(-c2ccc3c(c2)COC2(CCN(C4CCC4)CC2)O3)cc1Cl [Example 621] : 97 to 99 °C

Measured melting point, COc1ccc(-c2ccc3c(c2C)COC2(CCN(C4CCC4)CC2)O3)cn1 [Example 551] : 231 to 232 °C

###

measurementType: melting point

Measured melting point, `OC1(c2ccc3c(c2)COC2(CCN(C4CCC4)CC2)O3)CCSCC1` : 174 to 176 °C

Measured melting point, `O=C(NC[C@H]1CCCO1)c1ccc(-c2ccc3c(c2)CCC2(CCN(C4CCC4)CC2)O3)cc1Cl` : 62 to 64 °C

Measured melting point, `O=C1CCN1c1ccc2c(c1)CCC1(CCN(C3CCC3)CC1)O2` : 195 to 197 °C

Measured melting point, `O=c1ncc(Oc2ccc3c(c2)CCC2(CCN(C4CCC4)CC2)O3)c[nH]1` : 259 to 261 °C

Measured melting point, `Cc1cccc(Oc2ccc3c(c2)CCC2(CCN(C4CCC4)CC2)O3)n1` : 213 to 215 °C

Measured melting point, `CN(C)C(=O)NC1CCN(c2ccc3c(c2)CCC2(CCN(C4CCC4)CC2)O3)CC1` : 204.2 to 206.4 °C

Measured melting point, `c1ccc(Oc2ccc3c(c2)CCC2(CCN(C4CCC4)CC2)O3)nc1` : 232 to 234 °C

Measured melting point, O=C1CC(c2ccc3c(c2)COC2(CCN(C4CCC4)CC2)O3)CCN1 (stereo not shown) : 182 to 184 °C

Measured melting point, `c1cncc(Oc2ccc3c(c2)CCC2(CCN(C4CCC4)CC2)O3)c1` : 255 to 257 °C

Measured melting point, `O=c1[nH]cc(-c2ccc3c(c2)COC2(CCN(C4CCC4)CC2)O3)cc1CO` : 228 to 230 °C

Measured melting point, `CCS(=O)(=O)N1CCC(Oc2ccc3c(c2)CCC2(CCN(C4CCC4)CC2)O3)CC1` : 226 to 229 °C

Measured melting point, `CNC(=O)c1cnc(-c2ccc3c(c2)CCC2(CCN(C4CCC4)CC2)O3)s1` : 201 to 203 °C

Measured melting point, `O=C(Nc1ccc2c(c1)COC1(CCN(C3CCC3)CC1)O2)c1ccnc(N2CCCC2)c1` : 234 to 236 °C

Measured melting point, `O=C(C1CC1)N1CCC(Oc2ccc3c(c2)CCC2(CCN(C4CCC4)CC2)O3)CC1` : 243 to 245 °C

Measured melting point, `COCc1noc(COc2ccc3c(c2)CCC2(CCN(C4CCC4)CC2)O3)n1` : 178 to 179 °C

Measured melting point, `COc1cnc(-c2ccc3c(c2)COC2(CCN(C4CCC4)CC2)O3)nc1` : 113 to 115 °C

Measured melting point, `COCCNC(=O)N1CCN(c2ccc3c(c2)COC2(CCN(C4CCC4)CC2)O3)CC1` : 66.8 to 68.4 °C

Measured melting point, `CN(C)C(=O)/C=C/c1ccc2c(c1)CCC1(CCN(C3CCC3)CC1)O2` : 187 to 189 °C

Measured melting point, `OC1(c2ccc3c(c2)CCC2(CCN(C4CCC4)CC2)O3)CCSCC1` : 146 to 148 °C

Measured melting point, `Cc1ncccc1-c1ccc2c(c1)COC1(CCN(C3CCC3)CC1)O2` : 197 to 199 °C

Measured melting point, `O=S(=O)(c1ccc(-c2ccc3c(c2)COC2(CCN(C4CCC4)CC2)O3)cc1)N1CCCCC1` : 85 to 90 °C

Measured melting point, `CNC(=O)c1ccc(-c2ccc3c(c2)CCOC2(CCN(C4CCC4)CC2)O3)cn1` : 141 to 142.2 °C

Measured melting point, `O=c1ccc(-c2ccc3c(c2)COC2(CCN(C4CCC4)CC2)O3)cn1Cc1ccccc1` : 193 to 196 °C

Measured melting point, `CC(C)OCCNC(=O)c1ccc(-c2ccc3c(c2)CCC2(CCN(C4CCC4)CC2)O3)cc1` : 135 to 137 °C

Measured melting point, `O=C(c1ccc(-c2ccc3c(c2)COC2(CCN(C4CCC4)CC2)O3)s1)N1CCOCC1` : 166 to 167 °C

Measured melting point, `CCOCC1CCN(c2ccc3c(c2)CCC2(CCN(C4CCC4)CC2)O3)CC1` : 101.6 to 103.2 °C

Measured melting point, OC(c1ccc(Cl)nc1)c1ccc2c(c1)COC1(CCN(C3CCC3)CC1)O2 (stereo not shown) : 79 to 81 °C

Measured melting point, `CCNC(=O)N1CCN(c2ccc3c(n2)COC2(CCN(C4CCC4)CC2)O3)CC1` : 122 to 124 °C

Measured melting point, `Cc1cc(C(=O)Nc2ccc3c(c2)COC2(CCN(C4CCC4)CC2)O3)ccn1` : 184 to 185 °C

Measured melting point, OC(c1ccc(F)cc1)c1ccc2c(c1)COC1(CCN(C3CCC3)CC1)O2 (stereo not shown) : 58 to 62 °C

Measured melting point, `Cc1noc(CCc2ccc3c(c2)COC2(CCN(C4CCC4)CC2)O3)n1` : 74 to 76 °C

Measured melting point, `Cc1c(-c2cc[nH]c(=O)c2)ccc2c1COC1(CCN(C3CCC3)CC1)O2` : > 300 °C

Measured melting point, `CN(C)C(=O)c1ccc(-c2ccc3c(c2)COC2(CCN(C4CCC4)CC2)O3)nc1` : 190 to 193 °C

Measured melting point, `c1cnc(N2CCN(c3ccc4c(c3)CCC3(CCN(C5CCC5)CC3)O4)CC2)nc1` : 156 to 157 °C

###

measurementType: melting point

Measured melting point, CN1CC(c2ccc3c(c2)COC2(CCN(C4CCC4)CC2)O3)CCC1=O (stereo not shown) [Example 550] : 120 to 125 °C

Measured melting point, O=C1OCCN1c1ccc2c(c1)CCC1(CCN(C3CCC3)CC1)O2 [Example 119] : 186 to 188 °C

Measured melting point, c1cc2c(cc1OC1CCOCC1)CCC1(CCN(C3CCC3)CC1)O2 [Example 433] : 252 to 254 °C

Measured melting point, CCOc1ccc(-c2ccc3c(c2)OC2(CCN(C4CCC4)CC2)OC3)cn1 [Example 95] : 54 °C

Measured melting point, O=C(Nc1ccc2c(c1)CCC1(CCN(C3CCC3)CC1)O2)c1cc(-c2ccccc2)ncn1 [Example 249] : 153 to 155 °C

Measured melting point, OC(c1ccc2c(c1)COC1(CCN(C3CCC3)CC1)O2)c1cscn1 (stereo not shown) [Example 697] : 63 to 68 °C

Measured melting point, OC1CCN(c2ccc3c(c2)CCC2(CCN(C4CCC4)CC2)O3)CC1 [Example 405] : > 265 °C (dec.)

Measured melting point, CC(C)C(=O)NC1CCN(c2ccc3c(c2)COC2(CCN(C4CCC4)CC2)O3)CC1 [Example 324] : 208.4 to 210.6 °C

Measured melting point, Cc1cccc(C)c1-c1ccc2c(c1)COC1(CCN(C3CCC3)CC1)O2 [Example 756] : 58 to 60 °C

Measured melting point, O=c1cc(-c2ccc3c(c2)COC2(CCN(C4CCC4)CC2)O3)c(Cl)c[nH]1 [Example 667] : 130 to 132 °C

Measured melting point, O=c1ccc(N2CCN(c3ccc4c(c3)CCC3(CCN(C5CCC5)CC3)O4)CC2)n[nH]1 [Example 419] : 278 to 280 °C

Measured melting point, CNC(=O)c1ccc(N2CCN(c3ccc4c(c3)CCC3(CCN(C5CCC5)CC3)O4)CC2)nc1 [Example 409] : 297 to 299 °C

Measured melting point, c1ccc(COc2cc(-c3ccc4c(c3)COC3(CCN(C5CCC5)CC3)O4)ccn2)cc1 [Example 548] : 120 to 125 °C

Measured melting point, COCCNC(=O)c1ccc(-c2ccc3c(c2)CCC2(CCN(C4CCC4)CC2)O3)cc1 [Example 193] : 158 to 160 °C

Measured melting point, O=C(NC[C@@H]1CCCO1)c1c(F)cc(-c2ccc3c(c2)COC2(CCN(C4CCC4)CC2)O3)cc1F [Example 599] : 142 to 145 °C

Measured melting point, c1ccc(-c2ccc3c(c2)COC2(CCN(C4CCC4)CC2)O3)cc1 [Example 39] : 127.8 to 128.6 °C

Measured melting point, COc1ccc(/C=C/c2ccc3c(c2)COC2(CCN(C4CCC4)CC2)O3)nn1 [Example 510] : 168 to 170 °C

Measured melting point, COc1cc(C(=O)O)ccc1-c1ccc2c(c1)COC1(CCN(C3CCC3)CC1)O2 [Example 699] : 282 to 284 °C

Measured melting point, COc1cc(C)c(-c2ccc3c(c2)CCC2(CCN(C4CCC4)CC2)O3)cn1 [Example 769] : 127 to 128 °C

Measured melting point, C/C=C(\CC)c1ccc2c(c1)COC1(CCN(C3CCC3)CC1)O2 [Example 677] : 223.5 to 225.8 °C

Measured melting point, CC(=O)N(Cc1ccccc1)c1ccc2c(c1)COC1(CCN(C3CCC3)CC1)O2 [Example 290] : 115 to 117 °C

Measured melting point, CNC(=O)c1cnc(-c2ccc3c(c2)COC2(CCN(C4CCC4)CC2)O3)s1 [Example 164] : 200 to 203 °C

Measured melting point, O=C(Nc1ccc2c(c1)COC1(CCN(C3CCC3)CC1)O2)c1cccnc1 [Example 149] : 215 to 217 °C

Measured melting point, O=C(O)CCc1ccc2c(c1)COC1(CCN(C3CCC3)CC1)O2 [Example 637] : 235 to 237 °C

Measured melting point, CNC(=O)c1ccc(-c2ccc3c(c2)COC2(CCN(C4CCC4)CC2)O3)cn1 [Example 160] : 208 to 210 °C

Measured melting point, O=C(c1cccc(-c2ccc3c(c2)OC2(CCN(C4CCC4)CC2)OC3)c1)N1CCOCC1 [Example 96] : 61 °C

Measured melting point, Cc1cc(-c2ccc3c(c2)CCC2(CCN(C4CCC4)CC2)O3)ccc1C(=O)NCCO [Example 238] : 78.5 to 79.8 °C

Measured melting point, O=C(Nc1ccc2c(c1)COC1(CCN(C3CCC3)CC1)O2)c1ccc2ncsc2c1 [Example 316] : 232 to 234 °C

Measured melting point, CNC(=O)c1cn(-c2ccc3c(c2)COC2(CCN(C4CCC4)CC2)O3)cc1C [Example 86] : 149 to 153 °C

Measured melting point, COCCNC(=O)c1ccc(-c2cc3c(cc2Cl)OC2(CCN(C4CCC4)CC2)OC3)cc1 [Example 264] : 49 to 51 °C

Measured melting point, OC(c1cncnc1)c1ccc2c(c1)COC1(CCN(C3CCC3)CC1)O2 (stereo not shown) [Example 692] : 57 to 60 °C

Measured melting point, O=C(NC1CCOCC1)c1ccc(-c2ccc3c(c2)COC2(CCN(C4CCC4)CC2)O3)cn1 [Example 639] : 108 to 110 °C

Measured melting point, O=C(O)c1ccc(-c2ccc3c(c2)COC2(CCN(C4CCC4)CC2)O3)cc1 [Example 668] : 236 to 237 °C

Measured melting point, OC(c1ccc2c(c1)COC1(CCN(C3CCC3)CC1)O2)c1nccs1 (stereo not shown) [Example 664] : 70 to 72 °C
